# System: CAKI-1
# method description: NCI tumour cell line growth inhibition, 48 h
The source made the active and inactive calls. Cut-off read from the data, not from the text of the source: active = GI50 up to about 1.1 µM and inactive = higher.
Your response should consist of one outcome taken from true = active, false = inactive

Lookup: Would you mind telling me which call this test gave `COc1ccccc1CNC(=O)[C@H](Cc1ccc(O)cn1)NC(C)=O` ?
Found: false

Lookup: Would you mind telling me which call this test gave `COC(=O)Cc1cc(O)c2c(c1O)C(=O)c1ccccc1C2=O` ?
Found: false

Lookup: Would you mind telling me which call this test gave `O=C(O)c1[nH]c(C(=O)O)c(CC(F)(F)C(F)(F)C(F)(F)F)c1CC(F)(F)C(F)(F)C(F)(F)F` ?
Found: false

Lookup: Would you mind telling me which call this test gave `CC[C@]12C=CCN3CC[C@@]4(c5cc(Br)c(OC)cc5N(C)[C@H]4[C@@](O)(C(=O)NN)[C@@H]1O)[C@@H]32` ?
Found: false

Lookup: Would you mind telling me which call this test gave `C[C@]12CC[C@H]3[C@@H](CC=C4C[C@@H](O)CC[C@@]43C)[C@@H]1C[C@H](N1CCOCC1)[C@@H]2O` ?
Found: false

Lookup: Would you mind telling me which call this test gave `O=P1(O)c2ccccc2CCc2ccccc21` ?
Found: false

Lookup: Would you mind telling me which call this test gave `CN(C)CCNc1nc2c(c(=O)n(C)c(=O)n2C)n1C` ?
Found: false

Lookup: Would you mind telling me which call this test gave `C[C@]12O[C@@]3(C)O[C@@]3(C)[C@]3(C)O[C@]3(C)[C@@]1(C)O2` ?
Found: false

Lookup: Would you mind telling me which call this test gave C/C=C1\CC(C(=O)OCC)CCCCCCCCCCC1=O (configuration not stated) ?
Found: false

Lookup: Would you mind telling me which call this test gave C=CC(C)(C)NC(C(=O)N1CCC[C@H]1c1nc(-c2nc(C(=O)OCC=C(C)C)c(C)o2)c(C)o1)C(C)C (some centres not stated) ?
Found: false

Lookup: Would you mind telling me which call this test gave CC(c1ccccc1)N1CCN(C(C)c2ccccc2)CC1 (configuration not stated) ?
Found: false

Lookup: Would you mind telling me which call this test gave CC(C)/C=C1\CCC(CN(C)C)C1=O (configuration not stated) ?
Found: false

Lookup: Would you mind telling me which call this test gave `COc1ccc2c(C)cc(N/N=C(\C)C=O)nc2c1` ?
Found: false

Lookup: Would you mind telling me which call this test gave COc1cc2c(c(OC)c1)C1(CC(CC#N)C2)SCCS1 (configuration not stated) ?
Found: false

Lookup: Would you mind telling me which call this test gave `COc1cc(O)cc(O)c1C(=O)CC(Cl)(Cl)Cl` ?
Found: false

Lookup: Would you mind telling me which call this test gave CCOc1ccc(/N=N/C2C(=O)N(C(=O)CC(=O)Nc3ccccc3)N=C2C)cc1 (configuration not stated) ?
Found: false

Lookup: Would you mind telling me which call this test gave `C1=Cc2nc1c(-c1ccccc1)c1nc(c(-c3ccccc3)c3ccc([nH]3)c(-c3ccccc3)c3ccc([nH]3)c2-c2ccccc2)C=C1` ?
Found: false

Lookup: Would you mind telling me which call this test gave `CCOC(=O)CCn1ncc(Cl)c(Cl)c1=O` ?
Found: false

Lookup: Would you mind telling me which call this test gave `COc1cc2cc[n+]3c4cc(OC)c(OC)cc4c(C)cc3c2cc1OC` ?
Found: false

Lookup: Would you mind telling me which call this test gave CCOC(=O)C1=C(C)N(Cc2ccc(Cl)cc2Cl)C2(O)C(OC)CC(=O)C3C(=O)N(c4ccccc4)C(=O)C132 (configuration not stated) ?
Found: false

Lookup: Would you mind telling me which call this test gave `Fc1cccc2cc3ccc4cccc5ccc(c12)c3c45` ?
Found: false

Lookup: Would you mind telling me which call this test gave N#CC(c1ccccc1)N(CCc1ccccc1)C(=O)Oc1ccccc1 (configuration not stated) ?
Found: false

Lookup: Would you mind telling me which call this test gave `Oc1cccc2c(Br)ccnc12` ?
Found: false

Lookup: Would you mind telling me which call this test gave `COc1ccccc1Nc1nc2c([nH]1)c(=O)n(C)c(=O)n2C` ?
Found: false

Lookup: Would you mind telling me which call this test gave `COc1ccc(NC2=NCCO2)c2c1CCCC2` ?
Found: false

Lookup: Would you mind telling me which call this test gave `Cc1cc(N(CCC#N)CCC#N)ccc1/C=C1\N=C(c2cc([N+](=O)[O-])ccc2Cl)N(c2cccc(Cl)c2)C1=O` ?
Found: false

Lookup: Would you mind telling me which call this test gave CNC(=O)OC(C)CN1c2ccccc2Sc2ccc(Cl)cc21 (configuration not stated) ?
Found: false

Lookup: Would you mind telling me which call this test gave `CC(C)=CCN=C(N)N` ?
Found: false

Lookup: Would you mind telling me which call this test gave `Nc1ccc2cc3ccc(N)cc3nc2c1` ?
Found: false

Lookup: Would you mind telling me which call this test gave O=C(O)C1C2C=CC(O2)C1C(=O)NCc1cccnc1 (configuration not stated) ?
Found: false

Lookup: Would you mind telling me which call this test gave COc1cc2c(cc1OC)C(C(=O)c1cccc(OC)c1OC)C(=O)N(C)CC2 (configuration not stated) ?
Found: false

Lookup: Would you mind telling me which call this test gave `NCCCCN(CCCN)/[N+]([O-])=N\O` ?
Found: false

Lookup: Would you mind telling me which call this test gave `O=C1[C@@H]2C(c3ccncc3)=NO[C@@H]2C(=O)N1c1ccc(Cc2ccc(N3C(=O)[C@H]4C(c5ccncc5)=NO[C@H]4C3=O)cc2)cc1` ?
Found: false

Lookup: Would you mind telling me which call this test gave `COc1ccc(NC(=O)C2=C(SC)C(=O)N=C2N)cc1` ?
Found: false

Lookup: Would you mind telling me which call this test gave `CCC(=O)N1C(=O)C(CC)(CC)C(=O)N1C(=O)CC` ?
Found: false

Lookup: Would you mind telling me which call this test gave `N#Cc1c(-c2ccc([N+](=O)[O-])cc2)c(C#N)c(=O)n(NS(=O)(=O)c2ccccc2)c1-c1ccccc1` ?
Found: false

Lookup: Would you mind telling me which call this test gave `S=C(N/N=C(/c1ccccc1)c1ccccn1)N(Cc1ccccn1)Cc1ccccn1` ?
Found: true

Lookup: Would you mind telling me which call this test gave `O=C(NCCO)c1c(O)c2ccccc2[nH]c1=O` ?
Found: false

Lookup: Would you mind telling me which call this test gave `C=CCN1/C(=C2\SC(=S)N(c3ccc(C)cc3)C2=O)Sc2c1nc[nH]c2=O` ?
Found: false

Lookup: Would you mind telling me which call this test gave `O=c1c(-c2ccccc2)c(O)nc2[nH]c3ccccc3n12` ?
Found: false

Lookup: Would you mind telling me which call this test gave `N=C(N)c1ccc(OCCCCCOc2ccc(C(=N)N)cc2)cc1` ?
Found: false

Lookup: Would you mind telling me which call this test gave `c1ccc2c(c1)Nc1cccc3c1c-2nc1cc2ccccc2cc13` ?
Found: false
